- MEASUREMENT DESCRIPTION: yeast display, Sf9 membrane polyspecificity reagent, FACS + sequencing; frameworks hold sequencing errors
MEASURE NAME: polyreactivity (PSR sort gate)

>  <RESIDUES>
QVQLVESGGGLVQAGGSLRLSCAASGSIFWGYEMGSYRQAPGKERELVAAINRGGSTYYADSVKGRFTRSRDNAKNTVYLQMNSLKPEDTAVYYCAAGYPSWYYGYPYDSWGQGTQVTVSS

>  <polyreactivity (PSR sort gate)>
low polyreactivity

$$$$
>  <RESIDUES>
QVQLVESGGGVVQSGGSLRLSCAASGRTFNHYAMGWYRQAPGKERELVAGITISGGSTYYADSVKGRFTISRDNAKNTVYLQMNSLKPEDTAVYYCNAVYDYYRQSKWTMDYWGQGTQVTVSS

>  <polyreactivity (PSR sort gate)>
low polyreactivity

$$$$
>  <RESIDUES>
QVQLVESGGGLVQAGGSLRLSCAASGSPFGSNAMGWYRQAPGKERELVAAISYGGDRTYYADSVKGRFTISRDNAKNTVYLQMISLKPEDTALYYCNARIYKGYNYWGQGTQVTVSS

>  <polyreactivity (PSR sort gate)>
high polyreactivity

$$$$
>  <RESIDUES>
QVQLVESGGGLDQAGGSLRLTCAASGFNFSYYVMGWYRQAPGKERELVAAITKSGGSTYYADSVKGRFTIARDNAKNTVYLQMYSLKPEDTAVYFLAAVRGYRCYDYWGQGTQVTVSS

>  <polyreactivity (PSR sort gate)>
high polyreactivity

$$$$

Please examine the following record next.
I am curious: what polyreactivity (PSR sort gate) value has been reported for QVQLVESGGGLVQAGGSLRLSCAASGSPFDYNAMGWYRPAPGKERELVAASDVSGDNTYYADSVKGRFTISRDNAKNTVYLQMNSLKPEETAVYYCNADDYWRGTSDYDYWGQGTQVTVSS ?
low polyreactivity

====

- MEASUREMENT DESCRIPTION: yeast display, Sf9 membrane polyspecificity reagent, FACS + sequencing; frameworks hold sequencing errors
MEASURE NAME: polyreactivity (PSR sort gate)

The cases that follow already have their polyreactivity (PSR sort gate) on record.
>  <RESIDUES>
QVQLVESGGGLVQAGGSLRLSCAASGLTFPSYAMGWSRQAPGKERELVAAISRRSGSTYYADSVKGRFTICGDNAKYTVYLQMISLKPEDTAVYYCTTRRGERGYWGQGTQVTVSS

>  <polyreactivity (PSR sort gate)>
high polyreactivity

$$$$
>  <RESIDUES>
QVQLVESGGGLVQAGGSLRLSCAASGSTFDYYAMGWYRQAPGKERELVAAISSGGSTNYADSVKGRFTISRDNAKNTVYLQMNSLKPEDTAVYYCAAVALWDYKFFYYLLYDYWGQGTQVTVSS

>  <polyreactivity (PSR sort gate)>
low polyreactivity

$$$$
>  <RESIDUES>
QVQLVESGGGLVQAGGSLRLSCAASGYTFKTNDMGWYRPAPGKEREFVAAISAIGGSTYYADSVKGRFTISRDNAKNTVYLQMNSLKPEDTAVYYCAKDKSPYGYATNQYRKYYYWGQGTQVTVSS

>  <polyreactivity (PSR sort gate)>
low polyreactivity

$$$$
>  <RESIDUES>
QVQLVESGAGLVQAGGSLRLSCAASGFIFVKYAMGWYRQAPGKERELVAAISRSGGRTYYADSVKGRFTISRDNAKNNVYLQMNSLKPEDTAVYYCATDYYEDWRGYEDYWYRPYDYWGQGTQVTVSS

>  <polyreactivity (PSR sort gate)>
high polyreactivity

$$$$

Please examine the following record next.
I am curious: what polyreactivity (PSR sort gate) value has been reported for QVQIVESGGGLVQAGGSLRLSCAASGFTIDQYAMGWYRQAPGKERELVAAISWRGGSTYYADSVKGRFTISRDNAKNTVYLQMNSLKPEDTAVYYCNGYSPYHAGVDYGYWGQGTQVTVSS ?
high polyreactivity
